# Tested on: Rattus norvegicus
# ASSAY_PROTOCOL: In vivo inhibition of polyol accumulation in the sciatic nerve of galactosemic rats, activity is expressed as percent inhibition of poloyl accumulation.
# Type: functional
# Parameters: concentration or dose not given beside the values
MEASURED_ENDPOINT: Inhibition (%)
I only need the number, in %, no unit after it.

See these solved cases before continuing.
> print(dat)
                                   compound  unit.tag  reported
1  CN1C(=O)Nc2cc(Cl)c([N+](=O)[O-])cc2C12NC(=O)NC2=O (stereo not given)         %       7.7
2    CN1C(=O)Nc2ccc(F)cc2[C@@]12NC(=O)NC2=O         %        61
3  CN1C(=O)Nc2c(Cl)cc(Cl)cc2C12NC(=O)NC2=O (stereo not given)         %      63.1
4  CN1C(=O)Nc2cc([N+](=O)[O-])ccc2C12NC(=O)NC2=O (stereo not given)         %      11.5

Consider the record given below.
Inquiry: Identify the measured Inhibition of CN1C(=O)Nc2ccc(F)cc2C12NC(=O)NC2=O (stereo not given) for Rattus norvegicus.
Reply text: 58.7
